- Assayed system: VIM-1 (Pseudomonas aeruginosa (strain ATCC 15692 / DSM 22644 / CIP 104116 / JCM 14847 / LMG 12228 / 1C / PRS 101 / PAO1))
- Assay details: Enzyme activity: determination of IC50, fluorescence assay with CCF2-FA substrate (VIM-1)
- Type: biochemical
- Measurement parameters: VIM-1 IC50, VIM-1 enzyme, CCF2-FA fluorescence assay
Attribute: pIC50
pIC50 (log units): -log10 of the concentration in mol/L.

// solved cases for pIC50 follow
Molecule: CN1CCC(NCc2ccc(-c3cccc(S(N)(=O)=O)c3-c3nnn[nH]3)cc2)C1=O (stereo not shown) [Example 349]
pIC50: 6.20
//
Molecule: NS(=O)(=O)c1cccc(-c2cnc(N3CCNCC3)nc2)c1-c1nn[nH]n1 [Example 320]
pIC50: 7.44
//
Molecule: CCOCc1ccc(-c2cccc(S(N)(=O)=O)c2-c2nnn[nH]2)cc1 [Example 397]
pIC50: 6.61

Turning to the following molecule.
Which pIC50 value is on record for N=C(N)N1CCC(N)(c2ccc(-c3ccc(C(F)(F)F)c(S(N)(=O)=O)c3-c3nn[nH]n3)cc2)CC1 [Example 438] ? 7.97

Where do these numbers come from? They come from patent US9708336B2.
